B1: Hairpin Ribozyme (parent)
chain: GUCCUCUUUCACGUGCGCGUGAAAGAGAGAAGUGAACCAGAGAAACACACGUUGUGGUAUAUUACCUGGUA

Variants of: B1
measurementNotes: self-cleavage, relative activity (ratio to wild type); higher = more cleavage; co-transcriptional
readoutType: self-cleavage

> print(dat)
                               inputsequence  recordedmeasurement
 1  GUCCUGUUUCACGUGCGCGUGAAAGAGAGAAGUGAACCAGAGAAACACACGUUGUGGUAUAUUAACUGGUA [C6G C65A]                0.527
 2  GUCCUCUUUCACGUGCGCGUGAAAGAGAGAAGUGAACCACAGAAAUACACGUUGUGGUAUAUUACCUGGUA [G40C C46U]                0.116
 3  GUCCUCUUUCACCUGCGCGUGAAAGAGAUAAGUGAACCAGAGAAACACACGUUGUGGUAUAUUACCUGGUA [G13C G29U]               0.0913
 4  GUCCUCUUUCACGUGCGCGUGAAAGAGAGAAAUGAACCAGAGAAACACACGUUGUGGUAUAUUCCCUGGUA [G32A A64C]                 0.14
 5  GUCCUCUUUCACGUGCGCGUGAAAGAGAGAAGUGAACCAGAGAAACGCUCGUUGUGGUAUAUUACCUGGUA [A47G A49U]               0.0814
 6  AUCCUCAUUCACGUGCGCGUGAAAGAGAGAAGUGAACCAGAGAAACACACGUUGUGGUAUAUUACCUGGUA [G1A U7A]                0.127
 7  GUCCGCUUUCACGUGCGCGUGAAAGAGAGAAGUGAACCAGAGAAACACACGUUGUGGUAUAUUACAUGGUA [U5G C66A]               0.0473
 8  GUCCUCUUUCACGGGCGCGUGUAAGAGAGAAGUGAACCAGAGAAACACACGUUGUGGUAUAUUACCUGGUA [U14G A22U]                0.683
 9  GUCCUCUUUCACGUGCGCGUGAAAGAGAGAAGUGAUCCAGAGAAACACACGUUGUGGUAUAUUACCUUGUA [A36U G68U]                0.118
10  GUGCUCUUUCACGUGCGCGUGAAAGAGAGAGGUGAACCAGAGAAACACACGUUGUGGUAUAUUACCUGGUA [C3G A31G]               0.0813
11  GUCCUCUUUCACAUGCGCGUGAAAGAGAGAAGUGAACCAGAGAAACACUCGUUGUGGUAUAUUACCUGGUA [G13A A49U]                 0.18
12  GUCCUCUCUCACGUGCGCGUGAAAGGGAGAAGUGAACCAGAGAAACACACGUUGUGGUAUAUUACCUGGUA [U8C A26G]                0.544
13  GUCCUCUUUCACGUGCGCGUGAAAGAGAGAACUGAACCAGAGAAACACACGUUGUCGUAUAUUACCUGGUA [G32C G56C]                0.149
14  GUCCUCUUUCACGUGCGCGUGAAAGGGAGAAGUGAACCAGAGAAACACACGUCGUGGUAUAUUACCUGGUA [A26G U53C]                0.565
15  GUCCUCUUUCACGUGCGCGUGAAAGAGAGAAGUGAACCAGAGAAACACACGUUGUGGUAUAUUACUUGGUG [C66U A71G]                0.484
16  GUCCUCUUUCACGUGGGCGAGAAAGAGAGAAGUGAACCAGAGAAACACACGUUGUGGUAUAUUACCUGGUA [C16G U20A]                 1.02
17  GUCCUCUUUCACGUCCGCGUGAAAGAGAGAAGUGAACCUGAGAAACACACGUUGUGGUAUAUUACCUGGUA [G15C A39U]                0.402
18  GUCCUCUUUCACGUGCGCGUGAAAGAGAGAAGUGAACCGUAGAAACACACGUUGUGGUAUAUUACCUGGUA [A39G G40U]                0.116
19  GUCUUCUUUCACGUGCGCCUGAAAGAGAGAAGUGAACCAGAGAAACACACGUUGUGGUAUAUUACCUGGUA [C4U G19C]                0.219
20  GUCCUCUUUCACCUGCGCGUGAAAGAGAGAAGUGAACCACAGAAACACACGUUGUGGUAUAUUACCUGGUA [G13C G40C]                 0.11
21  GUCCUCUUUCACUUGCGCGUGAAAGAGAGAAGUGACCCAGAGAAACACACGUUGUGGUAUAUUACCUGGUA [G13U A36C]                0.537
22  GUCCUCUUUCACGUGCGCGUGAAAUAGAGAAGUGAACCAGAGAAACACACGUUGUGGCAUAUUACCUGGUA [G25U U58C]                0.503
23  GUCCUCUUUCACGUGCGCGUGAAAGAGAGAAGUGAACCAGAGAAAAACACGUUGUGGUAUAGUACCUGGUA [C46A U62G]               0.0929
24  GUCCUCUUACACGUGCGCGUGAAAGAGUGAAGUGAACCAGAGAAACACACGUUGUGGUAUAUUACCUGGUA [U9A A28U]                0.441
25  GUCAUCUUUCACGUGCGCGUGAAAGAGAGAAGGGAACCAGAGAAACACACGUUGUGGUAUAUUACCUGGUA [C4A U33G]                0.234
26  GUCCUCUUUUACGUGCGCGUGAAAGAGAGAAGUGAACCAGAGAAACACAAGUUGUGGUAUAUUACCUGGUA [C10U C50A]                 0.18
27  GACCUCGUUCACGUGCGCGUGAAAGAGAGAAGUGAACCAGAGAAACACACGUUGUGGUAUAUUACCUGGUA [U2A U7G]                0.197
28  GUCCUCUUUCACGUGGGCGUGAAAGAGAGAAGUGAACCAGAGAAACACACGUUGUGGUAUAUUACGUGGUA [C16G C66G]               0.0535
29  GUCCUCUUUCACAUGCGCGUGAAAGAGAGAAGUGAACCGGAGAAACACACGUUGUGGUAUAUUACCUGGUA [G13A A39G]                0.279
30  GUCCUCUUUCACGUGCGCGUGCAAGAGAGAAGUGAACCAGAGAAACACACGUUGCGGUAUAUUACCUGGUA [A22C U55C]                0.247
31  GUCCUCUUUCACGUGCGCCUGAAAGAUAGAAGUGAACCAGAGAAACACACGUUGUGGUAUAUUACCUGGUA [G19C G27U]                 0.27
32  GUCCUCUUUCCCGUGCGCGUGAAAGAGAGAAGUGAACCAAAGAAACACACGUUGUGGUAUAUUACCUGGUA [A11C G40A]                0.318
33  GUCCUCUUUCACGUGCGCGUGAAAGAGAGAAGUGAACCAGAAAAACACACGUCGUGGUAUAUUACCUGGUA [G42A U53C]                0.388
34  GUCCUCUUUCACGUGCGCGUGAAACAGAGAAGUGAACCAGAGAAACACCCGUUGUGGUAUAUUACCUGGUA [G25C A49C]                0.136
35  GUCCUCUUACACGUGCGCGUGAAAGAGAUAAGUGAACCAGAGAAACACACGUUGUGGUAUAUUACCUGGUA [U9A G29U]                0.144
36  GUCGUCUUUCACGUGCGCGUGAAAGAGAGAAGUUAACCAGAGAAACACACGUUGUGGUAUAUUACCUGGUA [C4G G34U]                0.977
37  GUCCUCUUUCACGUGCGCGUGAAAGAGAGAAGUAAACCAGAGAAACACACGUGGUGGUAUAUUACCUGGUA [G34A U53G]                 1.17
38  GUCAUCUUUCACGUGCGCGUGAAAGAGAGAAGUGAACCAGAGAAACACACGUUGUGGUAUAUUACCGGGUA [C4A U67G]                0.144
39  GUCCUCUUUCACGUGAGCGUGAAAGAGAGAAGUGAACCAGAGAAACACACGUUGUGGUAUAGUACCUGGUA [C16A U62G]                0.154
40  GUCCUCUUUCACGUGAGCGUGAAAGAGAGAAGUGAACCAGCGAAACACACGUUGUGGUAUAUUACCUGGUA [C16A A41C]                 1.18
41  GUCCUCGUUCACGUGCGCGUGAAAGAGAGAAGUGAACCAGAGAAACACACGUUGUGGUACAUUACCUGGUA [U7G U60C]                 1.12
42  GUCCUCUUUCACGUGCGCGCGAAAGAGAGAAGUGGACCAGAGAAACACACGUUGUGGUAUAUUACCUGGUA [U20C A35G]                 0.71
43  GUCCUCUUUCACGUGCGCGUGUAAGAGAGACGUGAACCAGAGAAACACACGUUGUGGUAUAUUACCUGGUA [A22U A31C]               0.0317
44  GUCCUCUUUCACGUGCGCGUGAAAGAGAGAAGUAAGCCAGAGAAACACACGUUGUGGUAUAUUACCUGGUA [G34A A36G]                 1.19
45  GUCCUCUUUCACGUGCGCGUGAAACAGAGAAGUGAACCAGAGAAACACACUUUGUGGUAUAUUACCUGGUA [G25C G51U]                0.624
46  GUCCUCUUUCACGUGCGCGUGAAAGAGAUAAGUGAACCAGAGAAACACACGUCGUGGUAUAUUACCUGGUA [G29U U53C]                0.197
